Data origin, for the record: patent US20260008770A1

Measured IC50 values are reported for all entries that follow.
# target.desc: Cbl-b protein (CBL-B, GST-Tag) (Homo sapiens (Human), UniProt Q13191)
# Sequence (Q13191 whole entry): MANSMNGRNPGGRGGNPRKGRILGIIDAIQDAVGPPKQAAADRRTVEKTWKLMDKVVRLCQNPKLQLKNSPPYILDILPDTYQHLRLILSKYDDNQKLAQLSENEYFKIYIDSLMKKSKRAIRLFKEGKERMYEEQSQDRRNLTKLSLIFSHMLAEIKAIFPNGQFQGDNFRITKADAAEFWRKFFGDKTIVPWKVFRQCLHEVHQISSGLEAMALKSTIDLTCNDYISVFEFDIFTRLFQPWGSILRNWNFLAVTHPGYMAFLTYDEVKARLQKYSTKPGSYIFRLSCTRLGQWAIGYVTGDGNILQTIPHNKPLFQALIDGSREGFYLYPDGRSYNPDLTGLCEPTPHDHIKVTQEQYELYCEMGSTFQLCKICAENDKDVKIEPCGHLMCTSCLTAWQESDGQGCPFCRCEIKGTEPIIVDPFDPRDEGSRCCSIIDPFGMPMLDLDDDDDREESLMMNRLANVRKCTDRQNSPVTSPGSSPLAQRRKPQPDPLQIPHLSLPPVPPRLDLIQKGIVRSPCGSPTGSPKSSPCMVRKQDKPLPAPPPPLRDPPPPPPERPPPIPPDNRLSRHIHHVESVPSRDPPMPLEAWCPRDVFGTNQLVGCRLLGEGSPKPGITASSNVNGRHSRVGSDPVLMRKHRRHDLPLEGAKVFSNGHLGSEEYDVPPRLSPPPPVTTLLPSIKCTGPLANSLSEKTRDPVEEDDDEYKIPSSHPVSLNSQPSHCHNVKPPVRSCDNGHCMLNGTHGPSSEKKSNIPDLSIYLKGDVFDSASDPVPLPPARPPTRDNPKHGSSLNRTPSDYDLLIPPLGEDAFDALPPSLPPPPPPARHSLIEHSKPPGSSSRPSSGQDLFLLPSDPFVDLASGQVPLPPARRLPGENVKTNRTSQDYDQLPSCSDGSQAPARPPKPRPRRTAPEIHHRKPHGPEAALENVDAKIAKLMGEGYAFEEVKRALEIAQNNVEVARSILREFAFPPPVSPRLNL
# experiment.summary: HTRF based binding assay, affinity to Cbl-b protein
# experimental.setup: HTRF binding, CBL-B (GST-Tag), fluorescence labeled Cbl-b binding probe
reported.metric: IC50

>>> reported_measurement("Cn1cnnc1CC1(c2cccc(-n3cc4c(C(F)(F)F)cc(CN5CCC[C@H](C6CC6)C5)cc4n3)c2)COC1")
"< 20 nM"
>>> reported_measurement("C#CC1CC(c2ccnc(-n3cnc4c(C(F)(F)F)cc(CN5CCC[C@H](C)C5)cc4c3=O)c2)(c2nncn2C)C1 (stereo partly shown)")
"< 20 nM"
>>> reported_measurement("CC1CC(c2cccc(-n3ncc4c(C(F)(F)F)cc(CN5CCO[C@H](C)C5)cc4c3=O)c2)(c2nncn2C)C1 (stereo partly shown)")
"> 1000 nM"
>>> reported_measurement("C#CC1CC(c2cccc(-n3cc4c(C(F)(F)F)cc(CN5CCC[C@H](C)C5)cc4n3)c2)(c2nncn2C)C1 (stereo partly shown)")
"< 20 nM"
>>> reported_measurement("C[C@H]1CCCN(Cc2cc(C(F)(F)F)c3cnn(-c4cccc([C@@H](c5nncn5C)C5CCC5)c4)c(=O)c3c2)C1")
"> 1000 nM"
>>> reported_measurement("CC1CC(c2cccc(-n3cc4c(C(F)(F)F)cc(CN5CCC[C@H](C)C5)cc4n3)c2)(c2nncn2C)C1 (stereo partly shown)")
"< 20 nM"
>>> reported_measurement("CC1CC(c2cc(OCF)nc(-n3ncc4c(C(F)(F)F)cc(CN5CCC[C@H](C)C5)cc4c3=O)c2)(c2nncn2C)C1 (stereo partly shown)")
"< 20 nM"

====

# target.desc: Cbl-b protein (CBL-B, GST-Tag) (Homo sapiens (Human), UniProt Q13191)
# experiment.summary: HTRF based binding assay, affinity to Cbl-b protein
Measured IC50 values are reported for all entries that follow.
reported.metric: IC50

>>> reported_measurement("C[C@H]1CCCN(Cc2cc(C(F)(F)F)c3ncn(-c4cc([C@]5(c6nncn6C6CCC6)C[C@@H](C)C5)ccn4)c(=O)c3c2)C1")
"0.05 to 0.5 µM"
>>> reported_measurement("C[C@H]1CCCN(Cc2cc(C(F)(F)F)c3cn(-c4cccc(C5(c6nncn6C)CC(OC(F)F)C5)c4)nc3c2)C1 (some centres unmarked)")
"0.05 to 0.5 µM"
>>> reported_measurement("CC1CC(c2ccnc(-n3cnc4c(C(F)(F)F)c(CN5CCC[C@H](C)C5)[nH]c4c3=O)c2)(c2nncn2C)C1 (some centres unmarked)")
"0.05 to 0.5 µM"
>>> reported_measurement("C[C@H]1CCCN(Cc2cc(C(=O)Nc3cccc(C(c4nncn4C)C4CCC4)c3)cc(C(F)(F)F)c2)C1 (some centres unmarked)")
"0.05 to 0.5 µM"
>>> reported_measurement("C[C@H]1CCCN(Cc2cc(C(F)(F)F)c3cnn(-c4cc([C@]5(c6nncn6C)C[C@H](C)C5)ccn4)c(=O)c3c2)C1")
"0.5 to 1 µM"
>>> reported_measurement("Cn1cnnc1[C@]1(c2cc(OCF)nc(-n3cnc4ccc(CN5CCC[C@H](F)C5)cc4c3=O)c2)C[C@H](C)C1")
"0.05 to 0.5 µM"
>>> reported_measurement("CC1CC(c2cccc(NC(=O)c3cc(CN4CCC[C@H](C)C4)cc(C(F)(F)F)c3)c2)(c2nncn2C)C1 (some centres unmarked)")
"0.02 to 0.05 µM"
>>> reported_measurement("Cn1cnnc1[C@]1(c2cccc(-n3cc4c(C(F)(F)F)cc(CN5CCC[C@H](OC(F)F)C5)cc4n3)c2)C[C@H](C)C1")
"0.05 to 0.5 µM"
>>> reported_measurement("CC1CC(c2cccc(-n3cc4c(C(F)(F)F)cc(CN5C[C@@H](C)C[C@H](C)C5)cc4n3)c2)(c2nncn2C)C1 (some centres unmarked)")
"0.05 to 0.5 µM"
>>> reported_measurement("C[C@H]1CCCN(Cc2cc(C(F)(F)F)c3cnn(-c4cccc(C5(Cc6nncn6C)COC5)c4)c(=O)c3c2)C1")
"0.5 to 1 µM"
>>> reported_measurement("C[C@H]1CCCN(Cc2cc(C(F)(F)F)c3cn(-c4cccc(C5(c6nncn6C)CC(F)(F)C5)c4)nc3c2)C1")
"0.02 to 0.05 µM"
>>> reported_measurement("CC1CC(c2ccc(F)c(-n3cc4c(C(F)(F)F)cc(CN5CCC[C@H](C)C5)cc4n3)c2)(c2nncn2C)C1 (some centres unmarked)")
"0.02 to 0.05 µM"
>>> reported_measurement("CC1CC(c2cccc(-n3ncc4c(C(F)(F)F)cc(CN5CCCCC5)cc4c3=O)c2)(c2nncn2C)C1 (centres unmarked)")
"0.05 to 0.5 µM"
>>> reported_measurement("Cc1cc(C2(c3nncn3C)CC(C)C2)cc(-n2cnc3c(C(F)(F)F)cc(CN4CCC[C@H](C)C4)cc3c2=O)n1 (some centres unmarked)")
"0.05 to 0.5 µM"

====

# target.desc: Cbl-b protein (CBL-B, GST-Tag) (Homo sapiens (Human), UniProt Q13191)
# experiment.summary: HTRF based binding assay, affinity to Cbl-b protein
pIC50: −log10 of the molar value.
Measured pIC50 values are reported for all entries that follow.
reported.metric: pIC50

>>> reported_measurement("C[C@H]1CCCN(Cc2cc(C(F)(F)F)c3ncn(-c4cc(C5(Cc6nncn6C)COC5)ccn4)c(=O)c3c2)C1")
"6.30 to 7.30"
>>> reported_measurement("CC1CC(c2cccc(-n3ncc4c(C(F)(F)F)cc(CN5CCC(F)(F)[C@H](C)C5)cc4c3=O)c2)(c2nncn2C)C1 (stereo partly drawn)")
"6.30 to 7.30"
>>> reported_measurement("C[C@H]1CCCN(Cc2cc(C(F)(F)F)c3cn(-c4cccc([C@]5(c6nncn6C)C[C@@H](OC(F)(F)F)C5)c4)nc3c2)C1")
"6.30 to 7.30"

====

# target.desc: Cbl-b protein (CBL-B, GST-Tag) (Homo sapiens (Human), UniProt Q13191)
# experiment.summary: HTRF based binding assay, affinity to Cbl-b protein
# experimental.setup: HTRF binding, CBL-B (GST-Tag), fluorescence labeled Cbl-b binding probe
reported.metric: IC50

>>> reported_measurement("CC1CC(c2cccc(-n3[nH]c4c(C(F)(F)F)cc(CN5CCC[C@H](C)C5)cc4c3=O)c2)(c2nncn2C)C1 (stereo partly drawn)")
"> 1000 nM"
>>> reported_measurement("CC1CN(Cc2cc(C(F)(F)F)c3ncn(-c4cc([C@]5(c6nncn6C)C[C@@H](C)C5)cc(OCF)n4)c(=O)c3c2)CCC1(F)F (stereo partly drawn)")
"< 20 nM"
>>> reported_measurement("CC(c1ccc2ncn(-c3cc([C@]4(c5nncn5C)C[C@@H](C)C4)cc(OCF)n3)c(=O)c2c1)N1CCC[C@H](C)C1 (stereo partly drawn)")
"< 20 nM"

====

# target.desc: Cbl-b protein (CBL-B, GST-Tag) (Homo sapiens (Human))
# experiment.summary: HTRF based binding assay, affinity to Cbl-b protein
pIC50: −log10 of the molar value.
Measured pIC50 values are reported for all entries that follow.
reported.metric: pIC50

>>> reported_measurement("C[C@H]1CCCN(Cc2cc(C(F)(F)F)c3cnn(-c4cccc(C5(c6nncn6C)CC(F)(F)C5)c4)c(=O)c3c2)C1 [Example 83]")
"6.30 to 7.30"
>>> reported_measurement("Cn1cnnc1[C@]1(c2cccc(-n3cc4c(C(F)(F)F)cc(CN5CCOC6(CCC6)C5)cc4n3)c2)C[C@H](C)C1 [Example 40]")
"6.30 to 7.30"
>>> reported_measurement("C#CC1CCCN(Cc2cc(C(F)(F)F)c3cnn(-c4cccc(C5(c6nncn6C)CC(C)C5)c4)c(=O)c3c2)C1 (centres unmarked) [Example 20]")
"6.00 to 6.30"
>>> reported_measurement("C[C@H]1CCCN(Cc2cc(C(F)(F)F)c3cnn(-c4cccc([C@H](c5nncn5C)C5CCC5)c4)c(=O)c3c2)C1 [Example 19]")
"6.30 to 7.30"
>>> reported_measurement("C[C@H]1CCCN(Cc2cc3c(=O)n(-c4cc([C@]5(c6nncn6C)C[C@@H](C)C5)cc(OCF)n4)cnc3cn2)C1 [Example 99]")
"> 7.70"
>>> reported_measurement("COCC1CC(c2cccc(-n3cc4c(C(F)(F)F)cc(CN5CCC[C@H](C)C5)cc4n3)c2)(c2nncn2C)C1 (some centres unmarked) [Example 33]")
"7.30 to 7.70"
>>> reported_measurement("C#CCC1CC(c2cccc(-n3cc4c(C(F)(F)F)cc(CN5CCC[C@H](C)C5)cc4n3)c2)(c2nncn2C)C1 (some centres unmarked) [Example 66]")
"7.30 to 7.70"
>>> reported_measurement("Cn1cnnc1[C@]1(c2ccnc(-n3ncc4c(C(F)(F)F)cc(CN5CCOC6(CCC6)C5)cc4c3=O)c2)C[C@H](C)C1 [Example 39]")
"6.00 to 6.30"
>>> reported_measurement("Cn1cnnc1[C@]1(c2ccnc(-n3cnc4c(C(F)(F)F)cc(CN5CCC6(CCO6)C5)cc4c3=O)c2)C[C@H](C)C1 (some centres unmarked) [Example 120]")
"6.00 to 6.30"
>>> reported_measurement("CC1CC(c2cccc(NC(=O)c3cc(CN4CCC[C@H](C)C4)cc4c3OC(F)(F)O4)c2)(c2nncn2C)C1 (some centres unmarked) [Example 25]")
"7.30 to 7.70"
>>> reported_measurement("CNC(=O)c1cc(-n2cc3c(C(F)(F)F)cc(CN4CCC[C@H](C)C4)cc3n2)cc(C2(c3nncn3C)CC(C)C2)c1 (some centres unmarked) [Example 43]")
"6.30 to 7.30"
>>> reported_measurement("C#Cc1cc(-n2cc3c(C(F)(F)F)cc(CN4CCC[C@H](C)C4)cc3n2)cc(C2(c3nncn3C)CC(C)C2)c1 (some centres unmarked) [Example 51]")
"6.30 to 7.30"
>>> reported_measurement("C[C@H]1CCCN(Cc2cc(C(F)(F)F)c3ncn(-c4cc(C5(c6nncn6C)CC6(CC6)C5)ccn4)c(=O)c3c2)C1 [Example 118]")
"7.30 to 7.70"
>>> reported_measurement("CC1=CCCN(Cc2cc(C(F)(F)F)c3cnn(-c4cccc(C5(c6nncn6C)CC(C)C5)c4)c(=O)c3c2)C1 (centres unmarked) [Example 21]")
"6.30 to 7.30"
>>> reported_measurement("C#Cc1cc([C@]2(c3nncn3C)C[C@@H](C)C2)cc(-n2cnc3ccc(CN4CCC[C@H](C)C4)cc3c2=O)n1 [Example 97]")
"6.30 to 7.30"
>>> reported_measurement("C[C@H]1CCCN(Cc2cc(C(F)(F)F)c3cn(-c4cc([C@]5(c6nncn6C)C[C@H](C)C5)ccn4)nc3c2)C1 [Example 71]")
"6.30 to 7.30"
>>> reported_measurement("Cn1cnnc1[C@]1(c2ccnc(-n3ncc4c(C(F)(F)F)cc(CN5CCCC6(CC6)C5)cc4c3=O)c2)C[C@H](C)C1 [Example 37]")
"6.30 to 7.30"
>>> reported_measurement("CC1CC(c2cc(C#N)cc(-n3cc4c(C(F)(F)F)cc(CN5CCC[C@H](C)C5)cc4n3)c2)(c2nncn2C)C1 (some centres unmarked) [Example 53]")
"6.30 to 7.30"
>>> reported_measurement("COCC1CC(c2cccc(-n3cnc4c(C(F)(F)F)cc(CN5CCC[C@H](C)C5)cc4c3=O)c2)(c2nncn2C)C1 (some centres unmarked) [Example 76]")
"6.30 to 7.30"
>>> reported_measurement("C[C@H]1CCCN(Cc2cc(C(F)(F)F)c3cn(-c4cc([C@]5(c6nncn6C)C[C@@H](C)C5)ccn4)nc3c2)C1 (single isomer, unassigned) [Example 58]")
"7.30 to 7.70"
>>> reported_measurement("C[C@H]1CCCN(Cc2cc(C(=O)Nc3cccc([C@H](c4nncn4C)C4COC4)c3)cc(C(F)(F)F)c2)C1 [Example 27]")
"6.30 to 7.30"
>>> reported_measurement("CC1CC(c2cccc(-n3[nH]c(=O)c4c(C(F)(F)F)cc(CN5CCC[C@H](C)C5)cc4c3=O)c2)(c2nncn2C)C1 (some centres unmarked) [Example 81]")
"6.30 to 7.30"
>>> reported_measurement("CC1CC(c2cccc(-n3ncc4c(C(F)(F)F)cc(CN5CCC[C@H](C)C5)cc4c3=O)c2)(c2nncn2C)C1 (some centres unmarked) [Example 6]")
"7.30 to 7.70"
